Value source: paper PMC9736855

Molecular target: CK2A2 (Homo sapiens, UniProt P19784);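 also: compound tested at 10 µM with 2 µM protein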
Construct: purchased in-house DSF panel (SGC Frankfurt)
Sequence (P19784 whole entry): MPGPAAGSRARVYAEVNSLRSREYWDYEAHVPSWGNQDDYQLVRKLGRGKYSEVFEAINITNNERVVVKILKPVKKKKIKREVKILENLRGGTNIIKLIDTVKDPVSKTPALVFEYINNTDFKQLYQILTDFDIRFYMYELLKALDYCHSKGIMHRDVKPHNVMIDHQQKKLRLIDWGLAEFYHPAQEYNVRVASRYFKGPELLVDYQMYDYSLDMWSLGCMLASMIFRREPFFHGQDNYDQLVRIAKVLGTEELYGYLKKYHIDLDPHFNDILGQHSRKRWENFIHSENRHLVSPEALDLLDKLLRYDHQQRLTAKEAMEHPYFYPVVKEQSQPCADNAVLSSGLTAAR
Experiment: DSF
Format: binding
quantity_measured: ΔTm CK2A2 (°C)
Give bare numbers, in °C.

Required: ΔTm CK2A2, one value per compound below.
1. COC(=O)c1cc(Nc2ccnc(NCc3ccc(NC(=O)OC(C)(C)C)cc3)n2)[nH]n1 [21i]
2. CC(C)(C)OC(=O)Nc1ccc(CNc2nccc(Nc3cc(C(=O)OC(C)(C)C)[nH]n3)n2)cc1 [43d]
3. N#CCc1ccc(Nc2nccc(Nc3cc(C4CC4)[nH]n3)n2)cc1 [compound 1, reference compound]

## Result
1: 1.3; 2: 1.1; 3: 8.5

State recorded ΔTm CK2A2 for all listed compounds.
1. COC(=O)c1cc(Nc2ccnc(NCCOCCNC(=O)OC(C)(C)C)n2)[nH]n1 [21d]
2. CC(C)OC(=O)c1cc(Nc2ccnc(NCc3ccc(NC(=O)OC(C)(C)C)cc3)n2)n[nH]1 [42d]

## Result
[1.8, 1.1]

====

For each record, write down the corresponding pEC50.
Target: CDK16/Cyclin Y (Homo sapiens, UniProt Q00536)
Construct: Full-length kinases were obtained as plasmids cloned in frame with a terminal NanoLuc-fusion; CS1810C178 (CCNY); host or cells: HEK293T
Sequence (Q00536 whole entry, the tested form may be a part): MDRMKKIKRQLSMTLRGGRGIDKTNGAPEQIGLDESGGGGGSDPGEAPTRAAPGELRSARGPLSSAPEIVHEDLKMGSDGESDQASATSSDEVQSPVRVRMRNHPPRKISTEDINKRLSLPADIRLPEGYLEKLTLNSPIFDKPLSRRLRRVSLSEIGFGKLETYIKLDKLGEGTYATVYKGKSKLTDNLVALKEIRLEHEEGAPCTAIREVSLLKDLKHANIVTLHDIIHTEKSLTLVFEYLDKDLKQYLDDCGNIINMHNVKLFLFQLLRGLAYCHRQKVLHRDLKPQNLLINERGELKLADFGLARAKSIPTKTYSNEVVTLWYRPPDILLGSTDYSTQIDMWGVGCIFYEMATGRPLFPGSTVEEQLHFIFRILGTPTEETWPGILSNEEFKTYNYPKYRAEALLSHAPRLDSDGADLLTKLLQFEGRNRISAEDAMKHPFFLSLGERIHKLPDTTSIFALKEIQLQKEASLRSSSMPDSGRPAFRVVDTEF
Sequence (Q8ND76 2-341 partner limits assumed): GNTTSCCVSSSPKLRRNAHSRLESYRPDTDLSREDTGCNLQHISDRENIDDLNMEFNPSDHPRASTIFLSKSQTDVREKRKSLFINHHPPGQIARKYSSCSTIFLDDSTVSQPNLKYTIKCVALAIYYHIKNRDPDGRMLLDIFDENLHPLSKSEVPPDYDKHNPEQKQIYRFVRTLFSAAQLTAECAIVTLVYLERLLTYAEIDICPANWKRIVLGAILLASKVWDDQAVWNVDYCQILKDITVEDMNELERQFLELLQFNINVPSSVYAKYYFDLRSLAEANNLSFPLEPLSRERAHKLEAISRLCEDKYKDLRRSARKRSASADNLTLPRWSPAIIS
Test: NanoBRET
Format: cell-based
Conditions: Figure 7, 11-point dose-response in duplicates; read-out: NanoBRET EC50 ± SEM against CDK16
Answers are plain numbers, as −log10 of the molar value.

## Task What does the data say about its pEC50? Entry: COC(=O)c1cc(Nc2nc(Nc3ccc(CCNC(=O)OC(C)(C)C)cc3)nc3ccccc23)[nH]n1 [23a]
## Result 5.03

## Task // query pEC50 value for entry CC(C)(C)OC(=O)NCCc1ccc(Nc2nccc(Nc3cc(C4CC4)n[nH]3)n2)cc1 [11a]
## Result 7.46

## Task Which pEC50 value is on record for Cc1cnc(NCCCCCNC(=O)OC(C)(C)C)nc1Nc1cc(C2CC2)n[nH]1 [12c] ?
## Result 6.75

## Task Could you share which pEC50 value was measured for CC(C)(C)c1cc(Nc2ccnc(Nc3ccc(CC#N)cc3)n2)[nH]n1 [40c] ?
## Result 6.45

## Task Look at this compound and give its reported pEC50. CC(C)c1cc(Nc2ccnc(NCCCCCNC(=O)OC(C)(C)C)n2)[nH]n1 [39b]
## Result 7.33

Consider the following items and state reported pEC50 for each.
1. Cc1cnc(Nc2cccc(CCNC(=O)OC(C)(C)C)c2)nc1Nc1cc(C2CC2)n[nH]1 [12b]
2. CC(C)(C)OC(=O)NCCc1ccc(Nc2ncc(Cl)c(Nc3cc(C4CC4)n[nH]3)n2)cc1 [13a]
3. CC(C)(C)OC(=O)NCCCCCCNc1nccc(Nc2cc(C3CC3)n[nH]2)n1 [11e]
4. COC(=O)c1cc(Nc2ccnc(NCc3ccc(NC(=O)OC(C)(C)C)cc3)n2)[nH]n1 [21i]

## Result
[5.96, 6.45, 7.44, 6.42]

====

Target: CDK11A/Cyclin L2 (Homo sapiens)
Sequence (Q9UQ88 whole entry): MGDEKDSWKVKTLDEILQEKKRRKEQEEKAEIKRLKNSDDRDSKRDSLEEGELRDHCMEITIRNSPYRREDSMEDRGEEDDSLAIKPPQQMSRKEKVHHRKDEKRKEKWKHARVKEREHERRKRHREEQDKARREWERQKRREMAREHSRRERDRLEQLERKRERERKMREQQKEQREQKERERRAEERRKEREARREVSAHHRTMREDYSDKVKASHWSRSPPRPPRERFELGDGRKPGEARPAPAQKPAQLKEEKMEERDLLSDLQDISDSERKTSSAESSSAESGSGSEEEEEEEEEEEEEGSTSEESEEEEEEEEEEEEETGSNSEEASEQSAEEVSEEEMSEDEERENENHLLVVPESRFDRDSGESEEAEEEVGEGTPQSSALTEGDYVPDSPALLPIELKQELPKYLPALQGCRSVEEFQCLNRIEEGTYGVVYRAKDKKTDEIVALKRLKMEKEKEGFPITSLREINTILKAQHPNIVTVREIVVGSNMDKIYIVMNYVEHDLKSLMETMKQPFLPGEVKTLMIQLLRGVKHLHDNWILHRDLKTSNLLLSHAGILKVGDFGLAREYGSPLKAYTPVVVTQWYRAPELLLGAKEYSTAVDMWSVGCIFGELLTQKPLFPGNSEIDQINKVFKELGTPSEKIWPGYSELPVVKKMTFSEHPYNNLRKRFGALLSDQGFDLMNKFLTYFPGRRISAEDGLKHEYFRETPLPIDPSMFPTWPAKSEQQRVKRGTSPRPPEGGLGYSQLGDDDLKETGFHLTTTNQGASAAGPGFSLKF
Sequence (Q96S94 whole entry partner): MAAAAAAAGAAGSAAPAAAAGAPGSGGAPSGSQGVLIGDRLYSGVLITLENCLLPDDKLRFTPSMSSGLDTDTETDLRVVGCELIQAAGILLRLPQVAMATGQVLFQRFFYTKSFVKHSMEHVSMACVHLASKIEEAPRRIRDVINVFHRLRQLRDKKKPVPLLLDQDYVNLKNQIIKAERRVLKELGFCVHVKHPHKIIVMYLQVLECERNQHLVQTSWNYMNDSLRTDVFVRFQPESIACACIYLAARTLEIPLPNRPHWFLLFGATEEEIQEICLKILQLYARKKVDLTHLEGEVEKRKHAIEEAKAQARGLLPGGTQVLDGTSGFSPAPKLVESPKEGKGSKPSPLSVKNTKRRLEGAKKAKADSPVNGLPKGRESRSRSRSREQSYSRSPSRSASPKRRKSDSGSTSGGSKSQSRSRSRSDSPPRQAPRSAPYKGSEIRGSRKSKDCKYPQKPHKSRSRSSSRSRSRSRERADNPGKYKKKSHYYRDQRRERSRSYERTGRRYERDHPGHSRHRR
Assay: NanoBRET
Settings: read-out: NanoBRET EC50 ± SEM CDK11A/Cyclin L2
Please respond with reported EC50 for every item in the list.
Numbers only, in µM.

Here are 3 molecules together with their reported answers.
## Task Return EC50 measured with CDK11A/Cyclin L2 (Homo sapiens) given this molecule: COC(=O)c1cc(Nc2ccnc(NCc3ccc(NC(=O)OC(C)(C)C)cc3)n2)[nH]n1 [21i]
## Result 20.5

## Task # value lookup — system CDK11A/Cyclin L2 (Homo sapiens), readout EC50, item CC(C)OC(=O)c1cc(Nc2ccnc(NCc3ccc(NC(=O)OC(C)(C)C)cc3)n2)n[nH]1 [42d]
## Result 2.09

## Task Notebook: pull reported EC50 for CDK11A/Cyclin L2 (Homo sapiens), entry CC(C)(C)OC(=O)Nc1ccc(CNc2nccc(Nc3cc(C(=O)OC(C)(C)C)[nH]n3)n2)cc1 [43d]
## Result 3.46

Next:
## Task API: value(readout=EC50, system=CDK11A/Cyclin L2 (Homo sapiens)) for record N#CCc1ccc(Nc2nccc(Nc3cc(C4CC4)[nH]n3)n2)cc1 [compound 1, reference compound]
## Result 0.76

====

Biological target: CDK10/Cyclin L2 (Homo sapiens, UniProt Q15131)
Sequence (Q15131 whole entry): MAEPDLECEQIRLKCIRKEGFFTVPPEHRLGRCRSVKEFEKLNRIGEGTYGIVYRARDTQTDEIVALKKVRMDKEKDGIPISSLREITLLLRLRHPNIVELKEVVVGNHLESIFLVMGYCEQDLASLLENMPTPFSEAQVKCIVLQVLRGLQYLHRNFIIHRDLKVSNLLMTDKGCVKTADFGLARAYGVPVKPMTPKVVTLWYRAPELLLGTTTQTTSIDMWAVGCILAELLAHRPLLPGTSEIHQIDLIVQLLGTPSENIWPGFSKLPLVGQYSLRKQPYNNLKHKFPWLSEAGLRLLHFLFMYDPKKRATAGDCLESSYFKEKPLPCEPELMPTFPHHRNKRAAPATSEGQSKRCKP
Test: NanoBRET
Settings: read-out: NanoBRET EC50 ± SEM CDK10/Cyclin L2
Method: The assay was performed as described previously. In brief: Full-length kinases were obtained as plasmids cloned in frame with a terminal NanoLuc-fusion (Promega, Madison, WI, USA), as specified in table (Table S6). […] Serially diluted inhibitor and NanoBRET Kinase Tracer (Promega) at a concentration determined previously as the KD,app (Table S5) were pipetted into white 384-well plates (Greiner 781207) using an Echo acoustic dispenser (Labcyte, San Jose, CA, USA). […]
quantity_measured: EC50 (nM)
Answers are plain numbers, in nM.

The following compounds have reported results that may help.
## Task So what EC50 did COC(=O)c1cc(Nc2ccnc(NCc3ccc(NC(=O)OC(C)(C)C)cc3)n2)[nH]n1 [21i] get with CDK10/Cyclin L2 (Homo sapiens, UniProt Q15131)?
## Result 7930

## Task Recorded EC50 for N#CCc1ccc(Nc2nccc(Nc3cc(C4CC4)[nH]n3)n2)cc1 [compound 1, reference compound] with CDK10/Cyclin L2 (Homo sapiens, UniProt Q15131), please?
## Result 325

## Task Give EC50 (CDK10/Cyclin L2 (Homo sapiens, UniProt Q15131)) of the following compound: CC(C)OC(=O)c1cc(Nc2ccnc(NCc3ccc(NC(=O)OC(C)(C)C)cc3)n2)n[nH]1 [42d]
## Result 334

Next:
## Task Item: CC(C)(C)OC(=O)Nc1ccc(CNc2nccc(Nc3cc(C(=O)OC(C)(C)C)[nH]n3)n2)cc1 [43d] Test system: CDK10/Cyclin L2 (Homo sapiens, UniProt Q15131) Read-out: EC50 Value: ?
## Result 651

====

Biological target: CDK16 (Homo sapiens, UniProt Q00536)
Construct: purchased in-house DSF panel (SGC Frankfurt)
Experiment: DSF
Assay type: binding
Settings: 10 μM compound
quantity_measured: ΔTm at 10 µM (°C)
One number for each entry, in °C.

## Task What does the data say about its ΔTm at 10 µM? Entry: COC(=O)c1cc(Nc2nc(NCCCCCNC(=O)OC(C)(C)C)nc3ccccc23)[nH]n1 [23c]
## Result 3.4

## Task Item under review: COC(=O)c1cc(Nc2nc(NCCOCCNC(=O)OC(C)(C)C)ncc2Cl)[nH]n1 [22d] . Reported ΔTm at 10 µM?
## Result 0.2

## Task Would you mind telling me what ΔTm at 10 µM value was observed for CC(C)(C)OC(=O)NCCCCCNc1nccc(Nc2cc(C(C)(C)C)n[nH]2)n1 [40b] ?
## Result 5.1

## Task Suppose we examine the compound CC(C)(C)c1cc(Nc2ccnc(Nc3ccc(CC#N)cc3)n2)[nH]n1 [40c] ; what ΔTm at 10 µM value has been reported?
## Result 5.7

## Task Dear colleague, I am looking for the recorded ΔTm at 10 µM of the following compound: CC(C)(C)OC(=O)NCCOCCNc1nccc(Nc2cc(C3CC3)n[nH]2)n1 [11d]
## Result 7.3

Your task in this section: give ΔTm at 10 µM for each listed record.
1. CC(C)(C)OC(=O)NCc1ccc(CNc2nccc(Nc3cc(C4CC4)n[nH]3)n2)cc1 [11f]
2. COC(=O)c1cc(Nc2ccnc(NCCOCCNC(=O)OC(C)(C)C)n2)[nH]n1 [21d]
3. Cc1cnc(Nc2cccc(CCNC(=O)OC(C)(C)C)c2)nc1Nc1cc(C2CC2)n[nH]1 [12b]
4. CC(C)(C)OC(=O)NCCCCCNc1nccc(Nc2cc(C(=O)OC(C)(C)C)[nH]n2)n1 [43b]

## Result
1. 7.6
2. 4.3
3. 3.7
4. 9.3

====

Molecular target: CDK1/Cyclin B1 (Homo sapiens, UniProt P06493)
Construct: Full-length kinases were obtained as plasmids cloned in frame with a terminal NanoLuc-fusion; CS1810C170 (CCNB1)
Sequence (P06493 whole entry, the tested form may be a part): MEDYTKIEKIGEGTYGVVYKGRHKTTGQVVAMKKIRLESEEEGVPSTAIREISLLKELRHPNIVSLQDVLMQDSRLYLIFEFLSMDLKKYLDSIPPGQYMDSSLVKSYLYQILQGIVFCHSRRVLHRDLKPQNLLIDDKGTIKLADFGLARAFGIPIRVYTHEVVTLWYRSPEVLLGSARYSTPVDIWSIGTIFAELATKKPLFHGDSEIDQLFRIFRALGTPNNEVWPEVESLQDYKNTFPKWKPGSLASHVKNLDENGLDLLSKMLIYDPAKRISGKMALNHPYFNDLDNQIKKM
Sequence (P14635 whole entry partner, the tested form may be a part): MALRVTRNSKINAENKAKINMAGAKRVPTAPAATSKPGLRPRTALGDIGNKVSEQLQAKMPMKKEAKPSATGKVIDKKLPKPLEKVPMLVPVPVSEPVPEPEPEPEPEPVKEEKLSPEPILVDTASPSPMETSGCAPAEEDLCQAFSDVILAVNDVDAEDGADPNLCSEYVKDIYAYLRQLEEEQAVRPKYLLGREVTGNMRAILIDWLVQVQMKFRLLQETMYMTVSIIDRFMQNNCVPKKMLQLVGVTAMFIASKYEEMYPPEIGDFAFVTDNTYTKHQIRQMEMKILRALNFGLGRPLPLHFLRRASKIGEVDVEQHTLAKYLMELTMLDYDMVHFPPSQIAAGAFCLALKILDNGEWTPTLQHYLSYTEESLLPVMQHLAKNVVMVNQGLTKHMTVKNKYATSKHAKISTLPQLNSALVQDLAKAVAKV
Assay: NanoBRET
Details: read-out: NanoBRET EC50 ± SEM CDK1/Cyclin B1
quantity_measured: pEC50
Give bare numbers, as −log10 of the molar value.

## Task // query pEC50 value for entry N#CCc1ccc(Nc2nccc(Nc3cc(C4CC4)[nH]n3)n2)cc1 [compound 1, reference compound]
## Result 7.20

Continuing:
## Task Which pEC50 is reported for this compound? COC(=O)c1cc(Nc2ccnc(NCc3ccc(NC(=O)OC(C)(C)C)cc3)n2)[nH]n1 [21i]
## Result 5.03

====

Target: EPHB3 (Homo sapiens, UniProt P54753)
Construct: purchased in-house DSF panel (SGC Frankfurt)
Sequence (P54753 616-910): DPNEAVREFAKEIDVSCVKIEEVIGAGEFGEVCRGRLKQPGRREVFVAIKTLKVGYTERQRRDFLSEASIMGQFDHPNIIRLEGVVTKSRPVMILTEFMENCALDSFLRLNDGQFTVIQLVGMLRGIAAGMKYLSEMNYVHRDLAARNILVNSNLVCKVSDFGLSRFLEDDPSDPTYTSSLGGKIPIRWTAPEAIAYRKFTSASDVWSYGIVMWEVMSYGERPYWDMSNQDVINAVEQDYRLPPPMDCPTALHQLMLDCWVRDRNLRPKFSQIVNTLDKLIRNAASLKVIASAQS
Assay: DSF
Assay type: binding
Provide the reported ΔTm EPHB3 of each item.
Answers are plain numbers, in °C.

// worked examples, ΔTm EPHB3 included
## Task Any idea what its ΔTm EPHB3 is? The compound is COC(=O)c1cc(Nc2ccnc(NCc3ccc(NC(=O)OC(C)(C)C)cc3)n2)[nH]n1 [21i]
## Result 0.4

## Task Tell me the measured ΔTm EPHB3 of CN[C@@H]1C[C@H]2O[C@@](C)([C@@H]1OC)n1c3ccccc3c3c4c(c5c6ccccc6n2c5c31)C(=O)NC4 [staurosporine, reference compound] , please.
## Result 5.0

## Task Which ΔTm EPHB3 reading was recorded for the compound CC(C)(C)OC(=O)Nc1ccc(CNc2nccc(Nc3cc(C(=O)OC(C)(C)C)[nH]n3)n2)cc1 [43d] ?
## Result 1.7

## Task Name the recorded ΔTm EPHB3 for COC(=O)c1cc(Nc2ccnc(NCCOCCNC(=O)OC(C)(C)C)n2)[nH]n1 [21d] .
## Result 0.8

## Task Which measured ΔTm EPHB3 value corresponds to N#CCc1ccc(Nc2nccc(Nc3cc(C4CC4)[nH]n3)n2)cc1 [compound 1, reference compound] ?
## Result 5.1

Field: next compound
## Task Give its ΔTm EPHB3 value. Item: CC(C)OC(=O)c1cc(Nc2ccnc(NCc3ccc(NC(=O)OC(C)(C)C)cc3)n2)n[nH]1 [42d]
## Result 1.3
